- subject.of.test: CRBN (Homo sapiens)
- Construct: Cells stably expressing BRD4BD2-GFP with mCherry reporter were seeded; endogenous in cells
- protocol.description: Cellular CRBN binding assay (BRD4BD2-GFP/mCherry reporter, competition with 100 nM dBET6)
- condition.notes: GFP/RFP ratio, Flip-In 293 cells expressing BRD4BD2-GFP, 5 hours
IC50 reference

molecule	IC50, µM
Nc1nnc(-c2ccccc2O)cc1N1CCN(C(=O)CCOCCOCCNc2cccc3c2CN(C2CCC(=O)NC2=O)C3=O)CC1 (stereo not drawn) [Compound 2]	20.9
Nc1nnc(-c2ccccc2O)cc1N1CCN(C(=O)CCCCCCCCOc2cccc3c2C(=O)N(C2CCC(=O)NC2=O)C3=O)CC1 (stereo not drawn) [Compound 3]	0.162
Nc1nnc(-c2ccccc2O)cc1N1CCN(C(=O)CCOCCNc2cccc3c2CN(C2CCC(=O)NC2=O)C3=O)CC1 (stereo not drawn) [Compound 1]	30.5

###

- subject.of.test: PBRM1 PB5 (Homo sapiens, UniProt Q86U86)
- protocol.description: PBRM1 PB5 GFP/RFP degradation assay (flow cytometry reporter assay)
- Assay type: cell-based
- condition.notes: 5 hours, FIG. 3A-3F

molecule	subject.of.test	DC50 (nM)
Nc1nnc(-c2ccccc2O)cc1N1CCN(C(=O)COc2cccc3c2C(=O)N(C2CCC(=O)NC2=O)C3=O)CC1 (stereo not drawn)	PBRM1 PB5 (Homo sapiens, UniProt Q86U86)	21.8
Nc1nnc(-c2ccccc2O)cc1N1CCN(C(=O)CCCCCCCCOc2cccc3c2C(=O)N(C2CCC(=O)NC2=O)C3=O)CC1 (stereo not drawn)	PBRM1 PB5 (Homo sapiens, UniProt Q86U86)	2.86
Nc1nnc(-c2ccccc2O)cc1N1CCN(C(=O)CCCCCCCOc2cccc3c2C(=O)N(C2CCC(=O)NC2=O)C3=O)CC1 (stereo not drawn)	PBRM1 PB5 (Homo sapiens, UniProt Q86U86)	6.42
Nc1nnc(-c2ccccc2O)cc1N1CCN(C(=O)CCCCCCCCCOc2cccc3c2C(=O)N(C2CCC(=O)NC2=O)C3=O)CC1 (stereo not drawn)	PBRM1 PB5 (Homo sapiens, UniProt Q86U86)	3.9
Nc1nnc(-c2ccccc2O)cc1N1CCN(C(=O)CCCCCCOc2cccc3c2C(=O)N(C2CCC(=O)NC2=O)C3=O)CC1 (stereo not drawn)	PBRM1 PB5 (Homo sapiens, UniProt Q86U86)	6.35
Nc1nnc(-c2ccccc2O)cc1N1CCN(C(=O)CCCCCCCCCCOc2cccc3c2C(=O)N(C2CCC(=O)NC2=O)C3=O)CC1 (stereo not drawn)	PBRM1 PB5 (Homo sapiens, UniProt Q86U86)	3.64
